Assay: Lipophilicity, logD of the compound at pH 7.5 by reversed-phase HPLC
Type: physicochemical
Settings: buffer
Binary classification by chromatographic logD, with 4 as an inclusive lower bound for 1.0; all other cases are 0.0.

Example results:
[[record]]
molecule = "O=C(Nc1ccc(Oc2ccc(F)cc2)nc1)N1CCc2ncccc2[C@@H]1c1ccc(F)cc1"
label_value = 0.0

[[record]]
molecule = "COc1ccc(C2c3ccsc3CCN2C(=O)Cc2cc(C)cc(C)c2)cc1 (racemic)"
label_value = 1.0

[[record]]
molecule = "O=C(Nc1cc(Cl)cc(Cl)c1)N1CCc2sccc2C1c1ccncc1 (racemic)"
label_value = 1.0

[[record]]
molecule = "O=C(Nc1ccc(Oc2ccc(F)cc2)cc1)N1CCc2ncccc2[C@@H]1c1ccc(Cl)cc1"
label_value = 1.0

[[record]]
molecule = "NC(=O)c1ccc(C2c3ccsc3CCN2C(=O)Nc2cc(Cl)cc(Cl)c2)cc1 (racemic)"
label_value = 0.0

[[record]]
molecule = "COc1ccc(C2c3ccsc3CCN2C(=S)Nc2cc(OC)cc(OC)c2)cc1 (racemic)"
label_value = 0.0

[[record]]
molecule = "COc1ccc(C2c3ccsc3CCN2C(=O)Nc2cccc(Cl)c2)cc1 (racemic)"
label_value = 1.0

[[record]]
molecule = "O=C(Nc1cnc(Oc2ccc(F)cc2)nc1)N1CCc2ncccc2[C@@H]1c1ccc(F)cc1"
label_value = 0.0


[in] In plain terms: is recorded chromatographic logD at least 4 for COc1ccc(C2c3ccsc3CCN2C(=O)Nc2cc(Cl)cc(Cl)c2)cc1 (racemic) ?
[out] 1.0

[in] How about O=C(Nc1ccc(Oc2ccc(F)cc2)cc1)N1CCc2sccc2C1c1ccc(Cl)cc1 (racemic) ?
[out] 1.0

###

Collected IC50 values appear next to each entry.
Biological target: UniProt:P22888
Experiment: Antagonist activity at human luteinizing hormone receptor assessed as reduction in agonist-induced cAMP production preincubated for 20 mins followed by agonist solution addition after 60 mins by cell based TR-FRET assay
Format: functional
Respond numerically; units are µM and should not be typed.

Observe how each entry below is paired with its result.
[[record]]
molecule = "O=C(Nc1ccc(Oc2ccc(F)cc2)nc1)N1CCc2ncccc2[C@@H]1c1ccc(F)cc1"
assayed_system = "UniProt:P22888"
measurement_type = "IC50"
quantity_unit = "µM"
reported = 0.312

[[record]]
molecule = "COc1ccc(C2c3ccsc3CCN2C(=O)Nc2cccc(Cl)c2)cc1 (racemic)"
assayed_system = "UniProt:P22888"
measurement_type = "IC50"
quantity_unit = "µM"
reported = 0.275

[[record]]
molecule = "COc1ccc(C2c3ccsc3CCN2C(=S)Nc2cc(OC)cc(OC)c2)cc1 (racemic)"
assayed_system = "UniProt:P22888"
measurement_type = "IC50"
quantity_unit = "µM"
reported = 3.32


[in] Reported IC50, molecule O=C(Nc1ccc(F)c(OC(F)(F)F)c1)N1CCc2sccc2C1c1ccc(Cl)cc1 (racemic) : ____
[out] 0.081

[in] How about O=C(Nc1cc(Cl)cc(Cl)c1)N1CCc2sccc2C1c1ccccc1F (racemic) ?
[out] 3.24

[in] How about Cc1ccc(C2c3ccsc3CCN2C(=O)Nc2cc(Cl)cc(Cl)c2)cc1 (racemic) ?
[out] 2.61

###

Biological target: Lutropin-choriogonadotropic hormone receptor (Homo sapiens, UniProt P22888)
Sequence (P22888 whole entry): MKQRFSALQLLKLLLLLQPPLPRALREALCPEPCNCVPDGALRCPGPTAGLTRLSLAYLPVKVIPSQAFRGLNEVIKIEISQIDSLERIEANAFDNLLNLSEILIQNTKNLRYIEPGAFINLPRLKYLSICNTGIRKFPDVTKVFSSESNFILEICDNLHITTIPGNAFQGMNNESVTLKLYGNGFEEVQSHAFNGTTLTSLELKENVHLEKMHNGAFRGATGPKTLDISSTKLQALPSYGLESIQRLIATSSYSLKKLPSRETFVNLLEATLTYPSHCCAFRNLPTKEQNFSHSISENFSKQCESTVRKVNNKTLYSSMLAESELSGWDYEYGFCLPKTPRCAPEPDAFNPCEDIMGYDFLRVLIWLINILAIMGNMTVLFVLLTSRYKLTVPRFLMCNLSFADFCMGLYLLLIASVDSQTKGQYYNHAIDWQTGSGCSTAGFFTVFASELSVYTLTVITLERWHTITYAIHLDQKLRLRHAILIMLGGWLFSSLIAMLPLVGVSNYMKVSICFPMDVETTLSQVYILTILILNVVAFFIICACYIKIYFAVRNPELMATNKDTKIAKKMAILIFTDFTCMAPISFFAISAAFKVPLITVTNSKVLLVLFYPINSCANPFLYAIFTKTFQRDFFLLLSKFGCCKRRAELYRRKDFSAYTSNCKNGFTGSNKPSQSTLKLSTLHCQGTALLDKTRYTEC
Assay: Antagonist activity at human luteinizing hormone receptor assessed as reduction in agonist-induced cAMP production preincubated for 20 mins followed by agonist solution addition after 60 mins by cell based TR-FRET assay
Type: functional
MEASUREMENT TYPE: IC50

[[record]]
molecule = "CC(C)c1ccc(C2c3ccsc3CCN2C(=O)Nc2cc(Cl)cc(Cl)c2)cc1 (racemic)"
assayed_system = "Lutropin-choriogonadotropic hormone receptor (Homo sapiens, UniProt P22888)"
reported = "> 16.5 µM"

[[record]]
molecule = "COc1ccc(C2c3ccsc3CCN2C(=O)Nc2ccc(F)c(N3CCS(=O)(=O)CC3)c2)cc1 (racemic)"
assayed_system = "Lutropin-choriogonadotropic hormone receptor (Homo sapiens, UniProt P22888)"
reported = "> 16.5 µM"

[[record]]
molecule = "O=C(Nc1cc(Cl)cc(Cl)c1)N1CCc2sccc2C1c1ccccn1 (racemic)"
assayed_system = "Lutropin-choriogonadotropic hormone receptor (Homo sapiens, UniProt P22888)"
reported = "> 16.5 µM"


[in] Reported IC50, molecule Cc1ccccc1C1c2ccsc2CCN1C(=O)Nc1cc(Cl)cc(Cl)c1 (racemic) : ____
[out] > 16.5 µM

[in] How about COc1ccc(C2c3ccsc3CCN2C(=O)Cc2cc(C)cc(C)c2)cc1 (racemic) ?
[out] > 16 µM
